- System: SEM cells
- Test Protocol: cell viability relative to DMSO control; higher = less cytotoxic
- Protocol Conditions: HPLM + 10% dialyzed FBS; 48 h; 0.569 µM
Would you mind telling me the reported cell viability of each entry?
Param answer (str): number followed by unit.

INPUT: Give cell viability for COC1=CC=C2CN(C)CC[C@@]34\C=C/[C@H](O)C[C@@H]3OC1=C24
OUTPUT: 114%

INPUT: Give cell viability for CNC(=O)N1\N=C(\C2=CC=C(N)C=C2)C3=CC4=C(OCO4)C=C3CC1C (configuration not stated)
OUTPUT: 122%

INPUT: Give cell viability for CC(C)(C)[C@H](NC(=O)c1ccc(N)c(Cl)c1)C(=O)N1CCC[C@H]1C(=O)N[C@H](C#N)CC(=O)O
OUTPUT: 113%

INPUT: Give cell viability for COC1=CC=C2/C3=N/CCN3\C(=N/C2=C1OC)NC(=O)C4=CC=CN=C4
OUTPUT: 96.7%

INPUT: Give cell viability for CO/N=C(\C(=O)N[C@@H]1C(=O)N2C(C(=O)OCOC(=O)C(C)(C)C)=C(/C=C\c3scnc3C)CS[C@H]12)c1csc(N)n1
OUTPUT: 94.8%

INPUT: Give cell viability for OC1=CC2=C(C(=C1)O)C(=O)\C(=C(/O2)C3=CC(=C(O)C=C3)O)O
OUTPUT: 97.4%

INPUT: Give cell viability for Cc1noc(-c2ccc(CSCCC(=O)O)cc2)c1NC(=O)OC(C)c1ccccc1Cl (configuration not stated)
OUTPUT: 99.7%

INPUT: Give cell viability for CCOC(=O)Nc1ccc(NCc2ccc(F)cc2)nc1N
OUTPUT: 94.9%

INPUT: Give cell viability for CC(C)(O)/C=C\C(=O)[C@](C)(O)[C@H]1[C@H](O)C[C@]2(C)[C@@H]3CC=C4[C@@H](C=C(O)C(=O)C4(C)C)[C@]3(C)C(=O)C[C@@]12C
OUTPUT: 24%

INPUT: Give cell viability for CCN(c1ccccc1)c1cc(NC)[n+](C)c(C)n1
OUTPUT: 99.5%

INPUT: Give cell viability for C[C@H]1COC/2=C1/C(=O)C(=O)C3=C4CCCC(C)(C)C4=CC=C23
OUTPUT: 125%

INPUT: Give cell viability for COC(=O)N1CC2(CC2)C[C@H](C(=O)NO)[C@H]1C(=O)N1CCN(c2ccccc2)CC1
OUTPUT: 113%

INPUT: Give cell viability for COc1ccccc1N1CCN(CCN(C(=O)C2CCCCC2)c2ccccn2)CC1
OUTPUT: 137%

INPUT: Give cell viability for O=[S+]([O-])(c1cccc2cnccc12)N1CCCNCC1
OUTPUT: 138%

INPUT: Give cell viability for CC/1=C(/N2[C@H](SC1)[C@H](NC(=O)C(N)C3=CC=CC=C3)C2=O)C(O)=O (some centres not stated)
OUTPUT: 120%

INPUT: Give cell viability for CN1CCN(C(=O)O[C@H]2c3nccnc3C(=O)N2c2ccc(Cl)cn2)CC1
OUTPUT: 108%

INPUT: Give cell viability for CN1CCN(CCOc2cc(OC3CCOCC3)c3c(Nc4c(Cl)ccc5c4OCO5)ncnc3c2)CC1
OUTPUT: 113%

INPUT: Give cell viability for C[S+](=O)([O-])c1ccc(Oc2cc(F)cc(C#N)c2)c2c1[C@H](O)C(F)(F)C2
OUTPUT: 103%

INPUT: Give cell viability for CO/N=C(/C(=O)N[C@@H]1C(=O)N2C(C(=O)O)=C(CSC(=O)c3ccco3)CS[C@H]12)c1csc(N)n1
OUTPUT: 82.3%

INPUT: Give cell viability for CN(C)C1=C(Br)C=C(C=C1)C\2NC3=C(\C4=C2C(=O)CC(C)(C)C4)C5=CC=CC=C5C=C3 (configuration not stated)
OUTPUT: 113%

INPUT: Give cell viability for OC[C@H]1O[C@@H](Oc2cc(O)cc(/C=C/c3ccc(O)cc3)c2)[C@H](O)[C@@H](O)[C@@H]1O
OUTPUT: 108%

INPUT: Give cell viability for C[C@](N)(Cc1ccc(O)c(O)c1)C(=O)O
OUTPUT: 84.1%

INPUT: Give cell viability for Cc1nc(Nc2n[nH]c3c2CN(C(=O)N[C@H](CN(C)C)c2ccccc2)C3(C)C)c2sccc2n1
OUTPUT: 36.6%

INPUT: Give cell viability for Clc1ccc(COC(Cn2ccnc2)c2ccc(Cl)cc2Cl)c(Cl)c1 (configuration not stated)
OUTPUT: 114%

INPUT: Give cell viability for CCNC(=O)Nc1ccc2ncc(Nc3ccc(C)cc3)nc2n1
OUTPUT: 113%

INPUT: Give cell viability for C[C@@H](O)[C@@H]1NC(=O)[C@H](CCCCN)NC(=O)[C@@H](Cc2c[nH]c3ccccc23)NC(=O)[C@H](Cc2ccccc2)NC(=O)[C@@H](NC(=O)[C@H](N)Cc2ccccc2)CSSC[C@@H](C(=O)N[C@H](CO)[C@@H](C)O)NC1=O
OUTPUT: 83.4%

INPUT: Give cell viability for CN1CCN(CCCN2c3ccccc3Sc3ccc(C(F)(F)F)cc32)CC1
OUTPUT: 106%

INPUT: Give cell viability for COc1ccc2cc1Oc1ccc(cc1)C[C@H]1c3cc(c(OC)cc3CCN1C)Oc1c(OC)c(OC)cc3c1[C@H](C2)N(C)CC3
OUTPUT: 108%

INPUT: Give cell viability for C[C@]12CCC\3=C\4CCC(=O)\C=C4CC[C@H]3[C@@H]1CC[C@@]2(O)CC#N
OUTPUT: 121%

INPUT: Give cell viability for N[S+](=O)([O-])OC[C@@H]1C[C@@H](n2ccc3c(N[C@H]4CCc5ccccc54)ncnc32)C[C@@H]1O
OUTPUT: 101%

INPUT: Give cell viability for O=C(O)CC/C=C\CC[C@@H]1[C@@H](N2CCCCC2)[C@@H](O)C[C@@H]1OCc1ccc(-c2ccccc2)cc1
OUTPUT: 127%

INPUT: Give cell viability for OC[C@H]1O[C@@H]2[C@@H](OC\3=N\C(=N)\C=C/[N@@]23)[C@@H]1O
OUTPUT: 34.6%

====

- Tested on: P12-Ichikawa
- Test Protocol: cell viability relative to DMSO control; higher = less cytotoxic
- Protocol Conditions: HPLM + 10% dialyzed FBS; 48 h; 0.00234 µM
Property Measured: cell viability
Param answer (str): number followed by unit.

INPUT: Give cell viability for COc1cc(N2CCC(N(C)C)CC2)ccc1Nc1ncc(Cl)c(Nc2ccccc2P(C)(C)=O)n1
OUTPUT: 115%

INPUT: Give cell viability for CN(C)C(=O)C(CCN1CCC(O)(c2ccc(Cl)cc2)CC1)(c1ccccc1)c1ccccc1
OUTPUT: 123%

INPUT: Give cell viability for OC(CN1CCN(c2cccc(Cl)c2)CC1)C(c1ccccc1)c1ccccc1 (centres undefined)
OUTPUT: 114%

INPUT: Give cell viability for Cc1onc(-c2ccccc2)c1C(=O)N[C@@H]1C(=O)N2[C@@H]1SC(C)(C)[C@@H]2C(=O)[O-].[Na+]
OUTPUT: 116%

INPUT: Give cell viability for C[S+](=O)([O-])c1ccc(Oc2cc(F)cc(C#N)c2)c2c1[C@H](O)C(F)(F)C2
OUTPUT: 96.9%

INPUT: Give cell viability for C[C@]12CC[C@H]3[C@@H](CCC/4=C/C(=O)CC[C@]34C)[C@@H]1CC[C@@H]2OC(=O)CCC5CCCC5
OUTPUT: 100%

INPUT: Give cell viability for Cc1cccc(/C=N/Nc2cc(N3CCOCC3)nc(OCCc3ccccn3)n2)c1
OUTPUT: 102%

INPUT: Give cell viability for CC(C)OC1=CC=C2C(=C1)O\C=C(/C2=O)C3=CC=CC=C3
OUTPUT: 126%

INPUT: Give cell viability for COc1cccc2c1[C@]13CCN(CC4CC4)[C@H](C2)[C@]1(OC)CCC(=O)C3
OUTPUT: 120%

====

- Test system: P12-Ichikawa
- Test Protocol: cell viability relative to DMSO control; higher = less cytotoxic
- Protocol Conditions: RPMI 5 mM glucose + 10% FBS; 48 h; 1.71 µM
Property Measured: cell viability (%)
Answer format: numeric, % implied, no suffix.

INPUT: Give cell viability for CC(C)(C)[C@H](NC(=O)c1ccc(N)c(Cl)c1)C(=O)N1CCC[C@H]1C(=O)N[C@H](C#N)CC(=O)O
OUTPUT: 133

INPUT: Give cell viability for CN(C)C1=C(Br)C=C(C=C1)C\2NC3=C(\C4=C2C(=O)CC(C)(C)C4)C5=CC=CC=C5C=C3 (stereo unspecified)
OUTPUT: 101

INPUT: Give cell viability for CC(C)(O)/C=C\C(=O)[C@](C)(O)[C@H]1[C@H](O)C[C@]2(C)[C@@H]3CC=C4[C@@H](C=C(O)C(=O)C4(C)C)[C@]3(C)C(=O)C[C@@]12C
OUTPUT: 15.1

INPUT: Give cell viability for CNC(=O)Nc1ccc(-c2nc(N3CC4CCC(C3)O4)c3cnn(C4CCC5(CC4)OCCO5)c3n2)cc1
OUTPUT: 60.8

INPUT: Give cell viability for N=C1N[C@H]2[C@H](CS[C@H]2CCCCC(=O)O)N1
OUTPUT: 126

INPUT: Give cell viability for CC(C)Oc1ccc(C(=O)N[C@H](CNC(=O)CN(C)C)Cc2ccc(-c3cn4cccc([C@H](C)O)c4n3)cc2)cc1Cl
OUTPUT: 41.2

INPUT: Give cell viability for NC/1=N/C(=O)N(/C=N1)[C@@H]2O[C@H](CO)[C@@H](O)[C@H]2O
OUTPUT: 107

INPUT: Give cell viability for O=C(/C=C/c1ccc(O)cc1)c1ccc(O)cc1O
OUTPUT: 98.5

INPUT: Give cell viability for C[S+](=O)([O-])c1ccc(Oc2cc(F)cc(C#N)c2)c2c1[C@H](O)C(F)(F)C2
OUTPUT: 105

INPUT: Give cell viability for Cc1ncc([N+](=O)[O-])n1CC(C)O (stereo unspecified)
OUTPUT: 115

INPUT: Give cell viability for Cc1onc(-c2ccccc2)c1C(=O)N[C@@H]1C(=O)N2[C@@H]1SC(C)(C)[C@@H]2C(=O)[O-].[Na+]
OUTPUT: 85.3

INPUT: Give cell viability for CO/N=C(\C(=O)N[C@@H]1C(=O)N2C(C(=O)OCOC(=O)C(C)(C)C)=C(/C=C\c3scnc3C)CS[C@H]12)c1csc(N)n1
OUTPUT: 103

INPUT: Give cell viability for COC1=CC=C(C=C1O)C/2=C/C(=O)C3=C(O2)C=C(O[C@@H]4O[C@H](CO[C@@H]5O[C@@H](C)[C@H](O)[C@@H](O)[C@H]5O)[C@@H](O)[C@H](O)[C@H]4O)C=C3O
OUTPUT: 115

INPUT: Give cell viability for CCOC(=O)\C1=C\[C@@H](OC(CC)CC)[C@H](NC(C)=O)[C@@H](N)C1
OUTPUT: 88.5

INPUT: Give cell viability for CC(C)OC1=CC=C2C(=C1)O\C=C(/C2=O)C3=CC=CC=C3
OUTPUT: 123

INPUT: Give cell viability for CC(C)(O)c1cc2nc(-c3cnc(N)nc3)nc(N3CCOCC3)c2s1
OUTPUT: 66.5
